Listed here: compounds with reported Ki for D(2) dopamine receptor (Mus musculus).

Before answering, review these 5 worked examples.
1. CCCN1CCCC(c2cccc(O)c2)C1 (stereo unspecified) [CAS_85976-54-1] : 5620 nM
2. O=C(O)c1ccccc1C(=O)Nc1cccc2ccccc12 [NPA,(+)] : 7.07 nM
3. O=c1[nH]c2ccccc2n1C1CCN(CCCC(c2ccc(F)cc2)c2ccc(F)cc2)CC1 : 0.19 nM
4. CCN1CCCC1CNC(=O)c1cc(S(N)(=O)=O)ccc1OC (stereo unspecified) : 14.4 nM
5. CC(C)C[C@H]1C(=O)N2CCC[C@H]2[C@]2(O)O[C@](NC(=O)[C@@H]3C=C4c5cccc6[nH]c(Br)c(c56)C[C@H]4N(C)C3)(C(C)C)C(=O)N12 [Bromocriptine+ (GTP+)] : 0.69 nM

Then there is this compound:
Query :: Quick one: Ki for CCN1CCC[C@H]1CNC(=O)c1cc(I)cc(OC)c1OC ?
Result :: 0.05 nM
